Biological target: Full-length human MNK2 (Homo sapiens, UniProt Q9HBH9, T379D)
Construct: GST (N); purchased Carna Biosciences 02-146; host or cells: baculovirus expression system
Sequence (Q9HBH9 whole entry T379D): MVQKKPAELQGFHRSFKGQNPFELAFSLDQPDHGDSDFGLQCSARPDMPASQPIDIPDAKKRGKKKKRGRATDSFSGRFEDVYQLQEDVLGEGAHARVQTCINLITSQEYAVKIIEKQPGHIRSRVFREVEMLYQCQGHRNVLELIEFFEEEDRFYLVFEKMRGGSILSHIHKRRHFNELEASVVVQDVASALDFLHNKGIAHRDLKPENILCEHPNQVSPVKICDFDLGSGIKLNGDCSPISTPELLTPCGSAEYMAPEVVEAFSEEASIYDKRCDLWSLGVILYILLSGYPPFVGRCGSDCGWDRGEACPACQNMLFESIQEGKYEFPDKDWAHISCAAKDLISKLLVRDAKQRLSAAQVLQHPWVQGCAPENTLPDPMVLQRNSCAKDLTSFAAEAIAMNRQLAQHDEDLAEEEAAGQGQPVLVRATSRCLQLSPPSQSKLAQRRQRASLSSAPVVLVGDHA
Test: MNK2 biochemical IC50 assay (Caliper Mobility Shift Assay)
Conditions: read-out: P(IC50) MNK2 (converted)
experimental.readout: IC50 (µM)
Expressed in µM, but write only the number.

CNCCCNC(=O)c1nc2c(N3CCc4cc(F)ccc43)ncnc2s1 : 0.00501
Nc1nc2c(N3CCc4cc(F)ccc43)ncnc2s1 : 0.0398

Exercise: Specify IC50 for NCCC1CN(c2ncnc3sc(C(=O)NCCC(F)(F)F)nc23)c2ccccc21 (centres unmarked) and stop.
Solution: 0.00501

Exercise: Specify IC50 for `CCOc1cc(F)ccc1Nc1ncnc2sc(C(=O)NCCCN(C)C)nc12` and stop.
Solution: 0.1

Exercise: Specify IC50 for CNC(=O)c1nc2c(N3CC(CCO)c4ccccc43)ncnc2s1 (centres unmarked) and stop.
Solution: 0.02
